Value source: ChEMBL document CHEMBL1811897

# System: Mus musculus
# Assay Procedure: Antipyretic activity against nicotine-induced hypothermia in ICR mouse assessed as change in rectal temperature dministered subcutaneously 15 mins prior to nicotine challenge and measured after 30 mins of 2.5 mg/kg nicotine challenge
# Assay type: functional, organism-based
# Set-up: dose 2.5 mg/kg, route subcutaneous
The label is y for IC50 below 2 mg/kg and n for IC50 equal to or exceeding 2 mg/kg.

Answered examples (8):
{"Compound": "COC(=O)[C@H]1[C@@H](c2ccc(Cl)c(C)c2)C[C@@H]2CC[C@H]1N2C", "Target Desc": "Mus musculus", "Label Value": "y"}
{"Compound": "Cc1ccc([C@H]2C[C@@H]3CC[C@H]([C@H]2C(=O)OC2CCC2)N3C)cc1", "Target Desc": "Mus musculus", "Label Value": "n"}
{"Compound": "COC(=O)[C@@H]1[C@H]2CC[C@@H](C[C@H]1c1ccc(Cl)c(C)c1)N2C", "Target Desc": "Mus musculus", "Label Value": "n"}
{"Compound": "COC(=O)[C@@H]1[C@H]2CC[C@@H](C[C@H]1c1ccc(C)c(F)c1)N2", "Target Desc": "Mus musculus", "Label Value": "n"}
{"Compound": "COC(=O)[C@H]1[C@@H](c2ccc(Cl)c(C)c2)C[C@@H]2CC[C@H]1N2", "Target Desc": "Mus musculus", "Label Value": "y"}
{"Compound": "COc1ccc(-c2cc([C@H]3[C@@H](c4ccc(Cl)cc4)C[C@@H]4CC[C@H]3N4C)on2)cc1", "Target Desc": "Mus musculus", "Label Value": "n"}
{"Compound": "CC(NC(C)(C)C)C(=O)c1cccc(Cl)c1 (stereo not drawn)", "Target Desc": "Mus musculus", "Label Value": "n"}
{"Compound": "Cc1cc([C@H]2[C@@H](c3ccc(Cl)c(C)c3)C[C@@H]3CC[C@H]2N3C)on1", "Target Desc": "Mus musculus", "Label Value": "y"}

Inquiry: Hello, is IC50 of the following compound strictly smaller than 2 mg/kg? Cc1cc([C@H]2C[C@@H]3CC[C@H]([C@H]2c2cc(-c4ccccc4)no2)N3C)ccc1Cl
Reply text: n

Inquiry: Answer whether the compound Cc1ccc([C@H]2C[C@@H]3CC[C@H]([C@H]2c2cc(-c4ccc(Cl)cc4)no2)N3C)cc1 has IC50 strictly less than 2 mg/kg
Reply text: n

Inquiry: Determine if CCc1cc([C@H]2[C@@H](c3ccc(C)cc3)C[C@@H]3CC[C@H]2N3C)on1 shows IC50 strictly lower than 2 mg/kg.
Reply text: n

Inquiry: Is IC50 strictly under 2 mg/kg for the entry Cc1cc2nc([C@H]3[C@@H](c4ccc(Cl)cc4)C[C@@H]4CC[C@H]3N4C)[nH]c2cc1C ?
Reply text: n

Inquiry: For Cc1ccc([C@H]2C[C@@H]3CC[C@H]([C@H]2C(=O)OC(C)C)N3C)cc1 , is the recorded IC50 below the cut-off of 2 mg/kg?
Reply text: y
